Tested on: 565726-208-R1-J5-PDC complex spheroids, growth inhibition;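 also: spheroids exposed to compounds for seven days before readout; 100% = DMSO vehicle control viability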
procedure.summary: Anticancer human tumor 565726-208-R1-J5-PDC patient-derived pancreatic adenocarcinoma cell line growth inhibition [RAS]
conditions: second compound 0.03 µM; first compound 0.0949 µM; hits give low values
viability, T/C: recorded values
Report only the number, with the unit % understood.

Consider the reported viability, T/C for these compounds:
INSERT INTO results (compound, target_or_system, recorded_number) VALUES
  ('CC1(C)CCC(Nc2ncc(C(F)(F)F)c(-c3c[nH]c4c(P(C)(C)=O)c(C#N)ccc34)n2)CN1 (centres undefined) + CCn1c(-c2cccnc2C(C)OC)c2c3cc(ccc31)N1CCOC(CC(NC(=O)C(C(C)C)N(C)C(=O)C3(F)CCN(C(=O)C#CC(C)(C)N(C)C)CC3)C(=O)N3CCCC(N3)C(=O)OCC(C)(C)C2)C1', '565726-208-R1-J5-PDC complex spheroids, growth inhibition', 28.6),
  ('CCc1c2c(nc3ccc(O)cc13)-c1cc3c(c(=O)n1C2)COC(=O)[C@]3(O)CC + CCn1c(-c2cccnc2C(C)OC)c2c3cc(ccc31)N1CCOC(CC(NC(=O)C(C(C)C)N(C)C(=O)C3(F)CCN(C(=O)C#CC(C)(C)N(C)C)CC3)C(=O)N3CCCC(N3)C(=O)OCC(C)(C)C2)C1', '565726-208-R1-J5-PDC complex spheroids, growth inhibition', 8.23),
  ('CCc1c2c(nc3ccc(O)cc13)-c1cc3c(c(=O)n1C2)COC(=O)[C@]3(O)CC + CCn1c(-c2cc(N3CCN(C)CC3)cnc2C(C)OC)c2c3cc(ccc31)-c1csc(n1)CC(NC(=O)C1CC1C)C(=O)N1CCCC(N1)C(=O)OCC(C)(C)C2', '565726-208-R1-J5-PDC complex spheroids, growth inhibition', 11.9);

Attention now shifts to the item below.
Task: Could you tell me which viability, T/C is on file for CC1(C)CCC(Nc2ncc(C(F)(F)F)c(-c3c[nH]c4c(P(C)(C)=O)c(C#N)ccc34)n2)CN1 (centres undefined) + CCn1c(-c2cc(N3CCN(C)CC3)cnc2C(C)OC)c2c3cc(ccc31)-c1csc(n1)CC(NC(=O)C1CC1C)C(=O)N1CCCC(N1)C(=O)OCC(C)(C)C2 ?
Output: 28.5
